- Experiment Description: Liver microsome stability assay (HLM)
- Type: in vitro ADME
- Conditions: human, microsomes, pH 7.4; 3 μM test compound, NADPH; read-out: T½ in HLM
Result Type: half-life

Which measured half-life value corresponds to C=C(C)[C@@H]1CCC(C)=C[C@H]1c1c(O)cc(CCCCC)cc1OC(=O)OCCOP(=O)(O)O.N.N [29a] ?
42 min

Which measured half-life value corresponds to C=C(C)[C@@H]1CCC(C)=C[C@H]1c1c(O)cc(CCCCC)cc1OC(=O)OCCCCOP(=O)(O)O.N.N [29c] ?
25 min

Which measured half-life value corresponds to C=C(C)[C@@H]1CCC(C)=C[C@H]1c1c(O)cc(CCCCC)cc1OC(=O)C1(OP(=O)(O)OCCC(C)C)CC1.N [14c] ?
24 min

Which measured half-life value corresponds to C=C(C)[C@@H]1CCC(C)=C[C@H]1c1c(O)cc(CCCCC)cc1OC(=O)NCCOP(=O)(O)O.N.N [38a] ?
121 min

Which measured half-life value corresponds to C=C(C)[C@@H]1CCC(C)=C[C@H]1c1c(O)cc(CCCCC)cc1OC(=O)C1(OP(=O)(O)OCCCCCCC)CC1.N [14e] ?
45 min

Which measured half-life value corresponds to C=C(C)[C@@H]1CCC(C)=C[C@H]1c1c(O)cc(CCCCC)cc1OC(=O)C1CC(OP(=O)(O)O)C1.N.N (stereo partly shown) [7c] ?
53 min

Which measured half-life value corresponds to C=C(C)[C@@H]1CCC(C)=C[C@H]1c1c(O)cc(CCCCC)cc1OC(=O)C1(OP(=O)(O)OC(C)C)CC1.N [14a] ?
13 min

Which measured half-life value corresponds to C=C(C)[C@@H]1CCC(C)=C[C@H]1c1c(O)cc(CCCCC)cc1O [CBD, Cannabidiol, reference compound] ?
5.8 min

Which measured half-life value corresponds to C=C(C)[C@@H]1CCC(C)=C[C@H]1c1c(O)cc(CCCCC)cc1OC(=O)C1(OP(=O)(O)OCCCCCCCCC)CC1.N [14f] ?
> 30 min

Which measured half-life value corresponds to C=C(C)[C@@H]1CCC(C)=C[C@H]1c1c(O)cc(CCCCC)cc1OC(=O)COP(=O)(O)O.N.N [7a] ?
59 min

###

For each record, write down the corresponding solubility.
- Experiment Description: physchem
- Assay type: physicochemical
- Conditions: aqueous buffer, kinetic from dmso stock; nephelometry, PBS pH 7.0-7.3, 1% DMSO, 25° C., 90 min
- Description: General Experimental: Nephelometry experiments were performed using untreated Corning® Costar® 96-well black polystyrene plates with clear flat bottoms. Sample stock solutions and serial dilutions were prepared with DriSolv® DMSO purchased from MilliporeSigma. […] Nephelometry data was obtained using a NEPHELOstar® microplate reader and processed with MARS data analysis software from BMG LabTech. […]
Lab book: enter the figure in µM, no units written.

Which measured solubility value corresponds to C=C(C)[C@@H]1CCC(C)=C[C@H]1c1c(O)cc(CCCCC)cc1OC(=O)C1(OP(=O)(O)OCCCCCCCCCC)CC1.N [14g] ?
75

Which measured solubility value corresponds to C=C(C)[C@@H]1CCC(C)=C[C@H]1c1c(O)cc(CCCCC)cc1OC(=O)C1(OP(=O)(O)OCCC(C)C)CC1.N [14c] ?
345

Which measured solubility value corresponds to C=C(C)[C@@H]1CCC(C)=C[C@H]1c1c(O)cc(CCCCC)cc1OC(=O)C1(OP(=O)(O)OCc2ccccc2)CC1.N ?
287

Which measured solubility value corresponds to C=C(C)[C@@H]1CCC(C)=C[C@H]1c1c(O)cc(CCCCC)cc1OC(=O)C1(OP(=O)(O)OCCCCC)CC1.N [14b] ?
276

###

- Experiment Description: physchem
- Type: physicochemical
- Conditions: aqueous buffer, kinetic from dmso stock; nephelometry, PBS pH 7.0-7.3, 1% DMSO, 25° C., 90 min
For each record, write down the corresponding solubility.

Which measured solubility value corresponds to C=C(C)[C@@H]1CCC(C)=C[C@H]1c1c(O)cc(CCCCC)cc1OC(=O)C1(OP(=O)(O)OCCCCCCCCC)CC1.N [14f] ?
67 µM

Which measured solubility value corresponds to C=C(C)[C@@H]1CCC(C)=C[C@H]1c1c(O)cc(CCCCC)cc1OC(=O)OCCCCOP(=O)(O)O.N.N [29c] ?
> 500 µM

Which measured solubility value corresponds to C=C(C)[C@@H]1CCC(C)=C[C@H]1c1c(O)cc(CCCCC)cc1OC(=O)OCCCOP(=O)(O)O.N.N [29b] ?
> 500 µM

Which measured solubility value corresponds to C=C(C)[C@@H]1CCC(C)=C[C@H]1c1c(O)cc(CCCCC)cc1O [CBD, Cannabidiol, reference compound] ?
16.9 µM

Which measured solubility value corresponds to C=C(C)[C@@H]1CCC(C)=C[C@H]1c1c(O)cc(CCCCC)cc1OC(=O)NCCOP(=O)(O)O.N.N [38a] ?
> 500 µM

Which measured solubility value corresponds to C=C(C)[C@@H]1CCC(C)=C[C@H]1c1c(O)cc(CCCCC)cc1OC(=O)COP(=O)(O)O.N.N [7a] ?
> 500 µM

Which measured solubility value corresponds to C=C(C)[C@@H]1CCC(C)=C[C@H]1c1c(O)cc(CCCCC)cc1OC(=O)C(C)OP(=O)(O)O.N.N (stereo partly shown) [7d] ?
> 500 µM

###

- Experiment Description: Liver microsome stability assay (HLM)
- Assay type: in vitro ADME
- Conditions: human, microsomes, pH 7.4; 3 μM test compound, NADPH; read-out: T½ in HLM
Result Type: half-life at 3 μM (h)
Lab book: enter the figure in h, no units written.

Which measured half-life at 3 μM value corresponds to C=C(C)[C@@H]1CCC(C)=C[C@H]1c1c(O)cc(CCCCC)cc1OC(=O)N(C)CCOP(=O)(O)O.N.N [38b] ?
3.83

###

- Experiment Description: physchem
- Type: physicochemical
- Conditions: aqueous buffer, kinetic from dmso stock; nephelometry, PBS pH 7.0-7.3, 1% DMSO, 25° C., 90 min
For each record, write down the corresponding solubility.

Which measured solubility value corresponds to C=C(C)[C@@H]1CCC(C)=C[C@H]1c1c(O)cc(CCCCC)cc1OC(=O)C1(OP(=O)(O)OCCOC)CC1.N [14i] ?
> 500 µM

Which measured solubility value corresponds to C=C(C)[C@@H]1CCC(C)=C[C@H]1c1c(O)cc(CCCCC)cc1OC(=O)C(C)(C)OP(=O)(O)O.N.N [7e] ?
> 500 µM

Which measured solubility value corresponds to C=C(C)[C@@H]1CCC(C)=C[C@H]1c1c(O)cc(CCCCC)cc1OC(=O)C1(OP(=O)(O)O)CC1.N.N [7b] ?
> 500 µM

Which measured solubility value corresponds to C=C(C)[C@@H]1CCC(C)=C[C@H]1c1c(O)cc(CCCCC)cc1OC(=O)C1(OP(=O)(O)OCCCCCCC)CC1.N [14e] ?
57 µM

Which measured solubility value corresponds to C=C(C)[C@@H]1CCC(C)=C[C@H]1c1c(O)cc(CCCCC)cc1OC(=O)C1(OP(=O)(O)OCCOCCOC)CC1.N [14j] ?
> 500 µM

Which measured solubility value corresponds to C=C(C)[C@@H]1CCC(C)=C[C@H]1c1c(O)cc(CCCCC)cc1OC(=O)C1(OP(=O)(O)OCCCCCC)CC1.N [14d] ?
98 µM

Which measured solubility value corresponds to C=C(C)[C@@H]1CCC(C)=C[C@H]1c1c(O)cc(CCCCC)cc1OC(=O)C1CC(OP(=O)(O)O)C1.N.N (stereo partly shown) [7c] ?
> 500 µM

Which measured solubility value corresponds to C=C(C)[C@@H]1CCC(C)=C[C@H]1c1c(O)cc(CCCCC)cc1OC(=O)NCCCOP(=O)(O)O.N.N [38c] ?
> 500 µM

Which measured solubility value corresponds to C=C(C)[C@@H]1CCC(C)=C[C@H]1c1c(O)cc(CCCCC)cc1OC(=O)C1(OP(=O)(O)OCC(CCC)CCC)CC1.N [14h] ?
66 µM

Which measured solubility value corresponds to C=C(C)[C@@H]1CCC(C)=C[C@H]1c1c(O)cc(CCCCC)cc1OC(=O)OCCOP(=O)(O)O.N.N [29a] ?
> 500 µM

###

- Experiment Description: Plasma stability assay (human plasma)
- Assay type: in vitro ADME
- Conditions: 37° C., read-out: T½ in human plasma (converted)
- Protocol: General Experimental: Procaine and Procainamide were purchased from Sigma-Aldrich. Human plasma was obtained from BioIVT (Cat. No. […]2N) and 1X Dulbecco's PBS (pH 7.4, Gibco) was obtained from Thermos Fischer. Stock solutions were prepared in 100% DMSO, and suitable dilutions of target analytes were prepared in methanol for method development. […]
Result Type: half-life

Which measured half-life value corresponds to C=C(C)[C@@H]1CCC(C)=C[C@H]1c1c(O)cc(CCCCC)cc1OC(=O)C1(OP(=O)(O)OCC(CCC)CCC)CC1.N [14h] ?
> 4 h

Which measured half-life value corresponds to C=C(C)[C@@H]1CCC(C)=C[C@H]1c1c(O)cc(CCCCC)cc1OC(=O)C1(OP(=O)(O)OCCOCCOC)CC1.N [14j] ?
> 4 h

Which measured half-life value corresponds to C=C(C)[C@@H]1CCC(C)=C[C@H]1c1c(O)cc(CCCCC)cc1OC(=O)OCOP(=O)(O)O.N.N [compound 24] ?
> 4 h

Which measured half-life value corresponds to C=C(C)[C@@H]1CCC(C)=C[C@H]1c1c(O)cc(CCCCC)cc1OC(=O)C1(OP(=O)(O)OCCCCCCCCCC)CC1.N [14g] ?
> 4 h

Which measured half-life value corresponds to C=C(C)[C@@H]1CCC(C)=C[C@H]1c1c(O)cc(CCCCC)cc1OC(=O)OCCCOP(=O)(O)O.N.N [29b] ?
> 4 h

Which measured half-life value corresponds to C=C(C)[C@@H]1CCC(C)=C[C@H]1c1c(O)cc(CCCCC)cc1OC(=O)C1(OP(=O)(O)OC(C)C)CC1.N [14a] ?
> 3 h

Which measured half-life value corresponds to C=C(C)[C@@H]1CCC(C)=C[C@H]1c1c(O)cc(CCCCC)cc1OC(=O)C1(OP(=O)(O)O)CC1.N.N [7b] ?
5.3 h
